I'd appreciate it if you could supply activation (HDL uptake increase) values for the items below.
Target: Scavenger receptor class B member 1 (Mus musculus)
Test: enhancers of DiI-HDL lipid transfer via SR-BI – cell-based, ldlA[mSR-BI] CHO, DiI fluorescence, cherry-pick, dose response (AID 602191);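 also: cell fluorescence from internalized DiI-labeled HDL after washing; 0% = median of DMSO wells and 100% = twice the DMSO signal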
Details: ldlA[mSR-BI] CHO cells, 3 h, at 35 µM (top of the series)
One number for each entry, in %.

Known results for compounds:
{"columns": ["compound", "activation (HDL uptake increase), %"],
 "data": [
  ["O=C1[C@H]2[C@@H](c3ccc(F)cc3)N3C(=O)N(c4ccc(Br)cc4)C(=O)[C@@]3(Cc3ccccc3)[C@H]2C(=O)N1C1CCCCC1", 6.23],
  ["CCN1CCN(C(c2cccc(OC)c2)c2sc3nc(C)nn3c2O)CC1 (stereo unspecified)", -1.19],
  ["Cc1ccc(C2(CCNCc3ccc(N(C)C)cc3)CCOC(C(C)C)C2)cc1 (stereo unspecified)", -1.19],
  ["C[C@@H]1CN([C@@H](C)CO)C(=O)Cc2cc(NC(=O)Nc3ccc(F)cc3)ccc2O[C@@H]1CN(C)Cc1ccc(Cl)c(Cl)c1", 94.8],
  ["CCC[C@@H](CNC)NC[C@H](Cc1ccccc1)NCCCCc1ccccc1", -3.49]
]}

Batch of 8 compounds: report activation (HDL uptake increase) for each.
1. CC(C)OC(=O)C1C(=O)CC(C)(O)C(C(=O)OC(C)C)C1c1cccc([N+](=O)[O-])c1 (stereo unspecified)
2. Cc1ccc(C(=O)NCCc2cccs2)cc1
3. CC(C)CN(C(=O)CCNC(=O)c1ccccc1Cl)C1CCS(=O)(=O)C1 (stereo unspecified)
4. CCN1CCN(C(CNS(=O)(=O)c2ccc(Br)cc2)c2cccnc2)CC1 (stereo unspecified)
5. CC(C)(C)OC(=O)NCCCC[C@H](NC(=O)c1nc[nH]c1C(=O)NC(c1ccccc1)c1ccccc1)C(=O)OC(C)(C)C
6. Cc1cc(C)nc(Nc2ncc(O)n2-c2ccccc2)n1
7. COc1cccc(CN2CCNC(=O)C2CC(=O)NCCCn2ccnc2)c1 (stereo unspecified)
8. Cc1ccc(NC(=O)COC(=O)Cn2ccc(=O)[nH]c2=O)cc1C

Result:
[-0.289, 1.64, 0.946, -1.44, -9.52, -7.64, 13, -10.8]

Batch of 4 compounds: report activation (HDL uptake increase) for each.
1. CC(=O)Nc1ccc(SCC(=O)NC(=O)c2ccc(S(=O)(=O)N(C)C)cc2)cc1
2. Cc1cccc(NC(=O)CCC(=O)OCc2ccc(Br)cc2)c1
3. O=C(O)CCn1cc(/C=C/C(=O)c2ccc(Cl)cc2)c(-c2ccc(Br)cc2)n1
4. C[C@@H](C(=O)OCC(=O)c1ccccc1)N1C(=O)C2CCCCC2C1=O (stereo partly specified)

Result:
1. -3.69
2. -7.9
3. -9.53
4. -7.88

Batch of 4 compounds: report activation (HDL uptake increase) for each.
1. CC1CCCC(NC(=O)CSc2nncs2)C1C (stereo unspecified)
2. Cc1ccc(OCCOCCN(C)C)c(Cl)c1
3. O=C(CCNC(=O)c1ccccc1Cl)NN1C(=O)NC2(CCCCC2)C1=O
4. O=C(COc1ccccc1Cc1ccccc1)Nc1cccnc1

Result:
[-4.42, 3.89, -10.8, -14.9]
